experiment_description: inhibition of 3D7 malaria parasite growth – strain 3D7 (AID 2306);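 also: 0% = DMSO wells and 100% = chloroquine plus artemisinin control wells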
condition_details: P. falciparum 3D7 erythrocytic growth, LDH absorbance, 72 h; at 2 µM; active compounds read high
In this section we review reported growth inhibition values for a set of compounds.
Write the answer as a number in %, unit excluded.

growth inhibition lookup needed for Cc1cc(NCCC(=O)NCCOc2ccccc2)nc(NCCc2ccc(F)cc2)n1 , thanks.
97

Query COc1cc(C=Cc2ccc3ccccc3n2)cc(Br)c1OCC(=O)N(C)C next
99

Query Cc1nnc(-c2ccc3ccccc3c2)c2cn(-c3cccc([N+](=O)[O-])c3)nc12 next
91

Query O=C(CNC1CCCCC1)Nc1cccc(C(=O)Nc2cccc(C(F)(F)F)c2)c1 next
93

Query N#Cc1ccc2c(c1)CCN(CCC1CCC(NC(=O)c3cc4cccc(Cl)c4[nH]3)CC1)CC2 (centres undefined) next
99

Query COc1ccc(NC(=O)Nc2cccc(-c3ccc(-c4nc5ccc(C(F)(F)F)cc5[nH]4)cc3)c2)cc1 next
101

Query CC(=O)Nc1ccc(OCCN(Cc2ccccc2OC(F)(F)F)c2ccc(C(F)(F)F)c(C#N)c2)c(Cl)c1 next
96

Query COc1ccc(-c2cccc(CNCc3ccc(F)cc3)c2)cc1S(=O)(=O)NCCN1CCCC1 next
101

Query CN(C)CC(=O)NCC(NCCCNc1cc(=O)c2ccccc2[nH]1)c1cc(Br)cc(Br)c1 (centres undefined) next
98
